# target.system: UniProt:Q07869
# Sequence (Q07869 200-468 limits assumed): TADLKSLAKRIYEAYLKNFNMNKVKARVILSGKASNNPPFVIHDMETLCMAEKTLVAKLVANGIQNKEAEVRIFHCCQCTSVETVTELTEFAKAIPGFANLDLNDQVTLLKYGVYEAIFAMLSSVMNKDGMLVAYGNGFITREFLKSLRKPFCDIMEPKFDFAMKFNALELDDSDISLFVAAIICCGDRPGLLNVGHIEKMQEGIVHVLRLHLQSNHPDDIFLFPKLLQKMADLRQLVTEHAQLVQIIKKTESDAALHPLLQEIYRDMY
# method.notes: Transient transfection assay in HepG2 cells, Gal4-hPPARα chimeric receptor, luciferase reporter
# Assay type: cell-based
# experimental.parameters: Hep G2-hAlpha EC50, 24 hours incubation; read-out: EC50α nM (Group)
measured.quantity: EC50

[[record]]
compound = "Cc1cc(SCc2ccc3c(c2)Cc2ccccc2-3)ccc1OCC(=O)O [Example 17]"
measured_quantity = "EC50"
reported = "2000 to 5000 nM"

[[record]]
compound = "Cc1cc(SCc2ccc(OCc3ccc(OC(F)(F)F)cc3)cc2)ccc1OCC(=O)O [Example 35]"
measured_quantity = "EC50"
reported = "< 300 nM"

[[record]]
compound = "Cc1cc(CCc2ccc(-c3ccc(C(F)(F)F)cc3)cc2)ccc1OCC(=O)O [Example 25]"
measured_quantity = "EC50"
reported = "1000 to 2000 nM"

[[record]]
compound = "COc1cc(OCC(=O)O)c(C)cc1SCc1cc(-c2ccc(C(F)(F)F)cc2)on1 [Example 43]"
measured_quantity = "EC50"
reported = "500 to 1000 nM"

[[record]]
compound = "COc1cc(OCC(=O)O)c(C)cc1SCc1ccc(-c2ccc(C(F)(F)F)cc2)cc1 [Example 4]"
measured_quantity = "EC50"
reported = "< 300 nM"


Problem: // returns reported EC50 for input COc1cc(OCC(=O)O)c(C)cc1SCc1ccc(-c2ccc(F)cc2)cc1 [Example 10]
Solution: 300 to 500 nM

---

measured.quantity: melting point

Known results for compounds:
[[record]]
structure_smiles_string = "COc1ccc(COc2ccc(CSc3ccc(OCC(=O)O)c4c3CCC4)cc2)cc1"
reported = "183 to 185 °C"

[[record]]
structure_smiles_string = "O=C(O)COc1ccc(SCc2ccc(OCc3ccc(Cl)cc3)cc2)c2c1CCC2"
reported = "170 to 172 °C"

[[record]]
structure_smiles_string = "Cc1cc(SCc2ccc(OCc3ccccc3)cc2)ccc1OCC(=O)O"
reported = "120 to 121 °C"

[[record]]
structure_smiles_string = "COc1cc(OCC(=O)O)c(C)cc1SCc1ccc(-c2cccc(C(F)(F)F)c2)cc1"
reported = "138 to 139 °C"


# ---- query compound ----
Problem: // returns reported melting point for input O=C(O)COc1ccc(SCCc2ccc(-c3ccc(C(F)(F)F)cc3)cc2)c2c1CCC2
Solution: 170 to 172 °C

---

# target.system: hPPARα (Homo sapiens, UniProt Q07869)
# method.notes: Transient transfection assay in HepG2 cells, Gal4-hPPARα chimeric receptor, luciferase reporter
# Assay type: cell-based
# experimental.parameters: Hep G2-hAlpha EC50, 24 hours incubation; read-out: EC50α nM (Group)
measured.quantity: EC50

Known results for molecules:
[[record]]
molecule = "Cc1cc(SCc2cc(-c3ccc(C(F)(F)F)cc3)on2)ccc1OCC(=O)O [Example 42]"
reported = "2000 to 5000 nM"

[[record]]
molecule = "O=C(O)COc1ccc(SCc2cc(-c3ccc(Cl)cc3)on2)c2c1CCC2 [Example 97]"
reported = "> 5000 nM"

[[record]]
molecule = "Cc1cc(SCc2ccc(-c3ccc(C(F)(F)F)cn3)cc2)c2c(c1OCC(=O)O)CCCO2 [Example 36]"
reported = "< 300 nM"


# ---- query molecule ----
Problem: For the record Cc1cc(SCc2ccc(-c3ccc(C(F)(F)F)cn3)cc2)c2c(c1OCC(=O)O)CCO2 [Example 92] , what value of EC50 is listed for hPPARα (Homo sapiens, UniProt Q07869)?
Solution: < 300 nM
